assay: Biodistribution in Jurkat tumor-bearing CB-17 SCID mice; assay type: in vivo; settings: female, CB-17 SCID, mouse, in vivo, iv, total radioactivity, Lung; 1 h p.i.; Jurkat xenograft, CB-17 SCID female mice; read-out: % iD/g Lung
Positions of bridges follow the written chain, without caps; N, C: chain ends. Non-standard residues stand in square brackets, D forms with d. Residues, ends and D or L forms follow the SMILES beside them. Groups on a side chain read outwards from the residue. Chains are numbered I, II in the order given. *: point of attachment. X6 = CN1/C(=C/C=C/C=C/C2=[N+](CCCCCC(=O)*)c3ccc(S(=O)(=O)[O-])cc3C2(C)C)C(C)(C)c2cc(S(=O)(=O)O)ccc21; Tyr(3-I) = N[C@@H](Cc1ccc(O)c(I)c1)C(=O)O; 2Nal = N[C@@H](Cc1ccc2ccccc2c1)C(=O)O; d2Nal = N[C@H](Cc1ccc2ccccc2c1)C(=O)O; dNMeOrn = CN[C@H](CCCN)C(=O)O; Mercaptoacetyl = O=C(CS)*; 4Abz = Nc1ccc(C(=O)O)cc1; X1 = NCCNCC(CNCCN)C(=O)*; dDap = NC[C@@H](N)C(=O)O
In this section we review reported tissue uptake at 1 h values for a set of compounds.
Respond with the bare value in %ID/g.

Use these answered entries as a reference point.
COMPOUND	MEASUREMENT NAME	EXPERIMENTAL VALUE
C[C@@H](NC(=O)[C@@H](CCCNC(=N)N)NC(=O)[C@@H](CN)NC(=O)C(CNCCN)CNCCN)C(=O)Nc1ccc(C(=O)NCCC[C@@H]2C(=O)N[C@@H](CCCNC(=N)N)C(=O)N[C@@H](Cc3ccc4ccccc4c3)C(=O)NCC(=O)N[C@H](Cc3ccc(O)cc3)C(=O)N2C)cc1 [Tc-CXCR4-14] (cyclo([dY][dNMeOrn]([4Abz-dA-dR-dDap-X1])R[2Nal]G))	tissue uptake at 1 h	3.99
C[C@@H](NC(=O)[C@@H](CCCNC(=N)N)NC(=O)[C@@H](CN)NC(=O)CCCCC[N+]1=C(/C=C/C=C/C=C2/N(C)c3ccc(S(=O)(=O)O)cc3C2(C)C)C(C)(C)c2cc(S(=O)(=O)[O-])ccc21)C(=O)Nc1ccc(C(=O)NCCC[C@@H]2C(=O)N[C@@H](CCCNC(=N)N)C(=O)N[C@H](Cc3ccc4ccccc4c3)C(=O)NCC(=O)N[C@@H](Cc3ccc(O)c(I)c3)C(=O)N2C)cc1 [CXCR4-OI-2] (cyclo([Tyr(3-I)][dNMeOrn]([4Abz-dA-dR-dDap-X6])R[d2Nal]G))	tissue uptake at 1 h	5.54

Alright, here's another compound for you.
According to the records, this compound C[C@@H](NC(=O)[C@@H](CCCNC(=N)N)NC(=O)[C@@H](Cc1c[nH]cn1)NC(=O)[C@@H](CO)NC(=O)[C@@H](CO)NC(=O)[C@@H](CO)NC(=O)CS)C(=O)Nc1ccc(C(=O)NCCC[C@@H]2C(=O)N[C@@H](CCCNC(=N)N)C(=O)N[C@@H](Cc3ccc4ccccc4c3)C(=O)NCC(=O)N[C@H](Cc3ccc(O)cc3)C(=O)N2C)cc1 [Tc-CXCR4-5] (I: Mercaptoacetyl-[dS][dS][dS][dH][dR][dA][4Abz] / II: cyclo([dY][dNMeOrn]R[2Nal]G); amide I:C-II:2) displays tissue uptake at 1 h of 1.57

----------
test: Biodistribution in Jurkat tumor-bearing CB-17 SCID mice; format: in vivo; settings: female, CB-17 SCID, mouse, in vivo, iv, total radioactivity, % iD/g Muscle
Non-standard residues stand in square brackets, D forms with d. Residues, ends and D or L forms follow the SMILES beside them. Groups on a side chain read outwards from the residue. *: point of attachment. DOTA = O=C(O)CN1CCN(CC(=O)O)CCN(CC(=O)*)CCN(CC(=O)O)CC1; dTyr(3-I) = N[C@H](Cc1ccc(O)c(I)c1)C(=O)O; 2Nal = N[C@@H](Cc1ccc2ccccc2c1)C(=O)O; dNMeOrn = CN[C@H](CCCN)C(=O)O; 4Abz = Nc1ccc(C(=O)O)cc1; dDap = NC[C@@H](N)C(=O)O
Let's look at some molecules and their measured tissue uptake at 6 h.
Field: numeric (%ID/g). Do not append units.

MOLECULE	tissue uptake at 6 h [%ID/g]
C[C@@H](NC(=O)[C@@H](CCCNC(=N)N)NC(=O)[C@@H](CN)NC(=O)CN1CCN(CC(=O)O)CCN(CC(=O)O)CCN(CC(=O)O)CC1)C(=O)Nc1ccc(C(=O)NCCC[C@@H]2C(=O)N[C@@H](CCCNC(=N)N)C(=O)N[C@@H](Cc3ccc4ccccc4c3)C(=O)NCC(=O)N[C@H](Cc3ccc(O)c(I)c3)C(=O)N2C)cc1 [CXCR4-DOTA-4 [Lu]] (cyclo([dTyr(3-I)][dNMeOrn]([4Abz-dA-dR-dDap-DOTA])R[2Nal]G))	0.07

From here, focus on the item given below.
Briefly, tissue uptake at 6 h measured for C[C@@H](NC(=O)[C@@H](CCCNC(=N)N)NC(=O)[C@@H](CN)NC(=O)CN1CCN(CC(=O)O)CCN(CC(=O)O)CCN(CC(=O)O)CC1)C(=O)Nc1ccc(C(=O)NCCC[C@@H]2C(=O)N[C@@H](CCCNC(=N)N)C(=O)N[C@@H](Cc3ccc4ccccc4c3)C(=O)NCC(=O)N[C@H](Cc3ccc(O)cc3)C(=O)N2C)cc1 [CXCR4-DOTA-3 [Lu]] (cyclo([dY][dNMeOrn]([4Abz-dA-dR-dDap-DOTA])R[2Nal]G)) : 0.03

----------
assay: Biodistribution in Jurkat tumor-bearing CB-17 SCID mice; type: in vivo; details: female, CB-17 SCID, mouse, in vivo, iv, total radioactivity, % iD/g Spleen
Non-standard residues stand in square brackets, D forms with d. Residues, ends and D or L forms follow the SMILES beside them. Groups on a side chain read outwards from the residue. *: point of attachment. DOTA = O=C(O)CN1CCN(CC(=O)O)CCN(CC(=O)*)CCN(CC(=O)O)CC1; dTyr(3-I) = N[C@H](Cc1ccc(O)c(I)c1)C(=O)O; 2Nal = N[C@@H](Cc1ccc2ccccc2c1)C(=O)O; dNMeOrn = CN[C@H](CCCN)C(=O)O; 4Abz = Nc1ccc(C(=O)O)cc1; dDap = NC[C@@H](N)C(=O)O
Some compounds, each annotated with its measured tissue uptake at 48 h.
// units = %ID/g; emit number, no label

COMPOUND	UOM	tissue uptake at 48 h
C[C@@H](NC(=O)[C@@H](CCCNC(=N)N)NC(=O)[C@@H](CN)NC(=O)CN1CCN(CC(=O)O)CCN(CC(=O)O)CCN(CC(=O)O)CC1)C(=O)Nc1ccc(C(=O)NCCC[C@@H]2C(=O)N[C@@H](CCCNC(=N)N)C(=O)N[C@@H](Cc3ccc4ccccc4c3)C(=O)NCC(=O)N[C@H](Cc3ccc(O)cc3)C(=O)N2C)cc1 [CXCR4-DOTA-3 [Lu]] (cyclo([dY][dNMeOrn]([4Abz-dA-dR-dDap-DOTA])R[2Nal]G))	%ID/g	1.32

Attention now shifts to the item below.
According to the records, this compound C[C@@H](NC(=O)[C@@H](CCCNC(=N)N)NC(=O)[C@@H](CN)NC(=O)CN1CCN(CC(=O)O)CCN(CC(=O)O)CCN(CC(=O)O)CC1)C(=O)Nc1ccc(C(=O)NCCC[C@@H]2C(=O)N[C@@H](CCCNC(=N)N)C(=O)N[C@@H](Cc3ccc4ccccc4c3)C(=O)NCC(=O)N[C@H](Cc3ccc(O)c(I)c3)C(=O)N2C)cc1 [CXCR4-DOTA-4 [Lu]] (cyclo([dTyr(3-I)][dNMeOrn]([4Abz-dA-dR-dDap-DOTA])R[2Nal]G)) displays tissue uptake at 48 h of 3.63

----------
assay: Biodistribution in Jurkat tumor-bearing CB-17 SCID mice; assay type: in vivo; details: female, CB-17 SCID, mouse, in vivo, iv, total radioactivity, % iD/g Tumor
Non-standard residues stand in square brackets, D forms with d. Residues, ends and D or L forms follow the SMILES beside them. Groups on a side chain read outwards from the residue. *: point of attachment. DOTA = O=C(O)CN1CCN(CC(=O)O)CCN(CC(=O)*)CCN(CC(=O)O)CC1; 2Nal = N[C@@H](Cc1ccc2ccccc2c1)C(=O)O; dNMeOrn = CN[C@H](CCCN)C(=O)O; 4Amb = NCc1ccc(C(=O)O)cc1; dDap = NC[C@@H](N)C(=O)O
MEASUREMENT NAME: tissue uptake at 1 h
Respond with the figure and its unit, in that order.

Looking up C[C@@H](NC(=O)[C@@H](CCCNC(=N)N)NC(=O)[C@@H](CN)NC(=O)CN1CCN(CC(=O)O)CCN(CC(=O)O)CCN(CC(=O)O)CC1)C(=O)NCc1ccc(C(=O)NCCC[C@@H]2C(=O)N[C@@H](CCCNC(=N)N)C(=O)N[C@@H](Cc3ccc4ccccc4c3)C(=O)NCC(=O)N[C@H](Cc3ccc(O)cc3)C(=O)N2C)cc1 [CXCR4-DOTA-1 [Lu]] (cyclo([dY][dNMeOrn]([4Amb-dA-dR-dDap-DOTA])R[2Nal]G)) , I see its tissue uptake at 1 h listed as 5.98 %ID/g
